Test system: SF-295
Assay: cells
Conditions: Homo sapiens, SF-295
metric name: IC50

response.value for CNC(=O)NC[C@H]1O[C@@H](n2cnc3c(NC(=O)Nc4ccccc4)ncnc32)C(O[Si](C)(C)C(C)(C)C)[C@H]1O[Si](C)(C)C(C)(C)C (stereo partly shown) (field: IC50) = > 100 µM

###

System: SNB-75
Assay: cells
Conditions: Homo sapiens, SNB-75
metric name: IC50

response.value for CNC(=O)NC[C@H]1O[C@@H](n2cnc3c(NC(=O)Nc4ccccc4)ncnc32)C(O[Si](C)(C)C(C)(C)C)[C@H]1O[Si](C)(C)C(C)(C)C (stereo partly shown) (field: IC50) = > 100 µM

###

Test system: SK-OV-3
Assay: cells
Conditions: Homo sapiens, SK-OV-3
metric name: IC50

response.value for CNC(=O)NC[C@H]1O[C@@H](n2cnc3c(NC(=O)Nc4ccccc4)ncnc32)C(O[Si](C)(C)C(C)(C)C)[C@H]1O[Si](C)(C)C(C)(C)C (stereo partly shown) (field: IC50) = > 100 µM

###

Tested on: T-47D
Test: cells
Conditions: Homo sapiens, T47D
pIC50: −log10 of the molar value.
metric name: pIC50

response.value for CNC(=O)NC[C@H]1O[C@@H](n2cnc3c(NC(=O)Nc4ccccc4)ncnc32)C(O[Si](C)(C)C(C)(C)C)[C@H]1O[Si](C)(C)C(C)(C)C (stereo partly shown) (field: pIC50) = < 4.00

###

Tested on: 788-0
Assay: cells
Settings: Homo sapiens, 786-0
metric name: IC50 (µM)
Give bare numbers, in µM.

response.value for CNC(=O)NC[C@H]1O[C@@H](n2cnc3c(NC(=O)Nc4ccccc4)ncnc32)C(O[Si](C)(C)C(C)(C)C)[C@H]1O[Si](C)(C)C(C)(C)C (stereo partly shown) [Compound 25] (field: IC50) = 6.75

###

Test system: A498
Experiment: cells
Conditions: Homo sapiens, A498
metric name: pIC50
Answers are plain numbers, as −log10 of the molar value.

response.value for CNC(=O)NC[C@H]1O[C@@H](n2cnc3c(NC(=O)Nc4ccccc4)ncnc32)C(O[Si](C)(C)C(C)(C)C)[C@H]1O[Si](C)(C)C(C)(C)C (stereo partly shown) (field: pIC50) = 5.71

###

System: NCI-H522
Test: cells
Settings: Homo sapiens, NCI-H522
metric name: IC50

response.value for CNC(=O)NC[C@H]1O[C@@H](n2cnc3c(NC(=O)Nc4ccccc4)ncnc32)C(O[Si](C)(C)C(C)(C)C)[C@H]1O[Si](C)(C)C(C)(C)C (stereo partly shown) (field: IC50) = > 100 µM

###

Test system: OVCAR-4
Experiment: cells
Conditions: Homo sapiens, OVCAR-4
metric name: IC50

response.value for CNC(=O)NC[C@H]1O[C@@H](n2cnc3c(NC(=O)Nc4ccccc4)ncnc32)C(O[Si](C)(C)C(C)(C)C)[C@H]1O[Si](C)(C)C(C)(C)C (stereo partly shown) [Compound 25] (field: IC50) = > 100 µM

###

Tested on: RPMI-8226
Experiment: cells
Settings: Homo sapiens, RPMI-8226
pIC50: −log10 of the molar value.
metric name: pIC50

response.value for CNC(=O)NC[C@H]1O[C@@H](n2cnc3c(NC(=O)Nc4ccccc4)ncnc32)C(O[Si](C)(C)C(C)(C)C)[C@H]1O[Si](C)(C)C(C)(C)C (stereo partly shown) (field: pIC50) = < 4.00
